Each entry below lists one item and its recorded Potency value.
- assay target: Vitamin D3 receptor (Homo sapiens) (UniProt P11473)
- Sequence (P11473 whole entry, looked up): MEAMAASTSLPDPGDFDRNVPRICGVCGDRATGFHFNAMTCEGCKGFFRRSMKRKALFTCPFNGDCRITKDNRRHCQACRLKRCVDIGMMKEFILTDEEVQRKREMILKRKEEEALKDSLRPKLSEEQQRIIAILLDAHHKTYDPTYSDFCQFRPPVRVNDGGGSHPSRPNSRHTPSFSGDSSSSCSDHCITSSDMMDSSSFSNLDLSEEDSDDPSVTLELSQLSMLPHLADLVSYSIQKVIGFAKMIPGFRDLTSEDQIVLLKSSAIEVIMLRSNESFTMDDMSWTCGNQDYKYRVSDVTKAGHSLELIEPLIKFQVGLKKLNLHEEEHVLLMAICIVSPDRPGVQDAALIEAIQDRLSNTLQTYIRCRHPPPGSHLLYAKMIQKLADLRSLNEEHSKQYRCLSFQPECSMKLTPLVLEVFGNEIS
- assay details: Inhibitors of the vitamin D receptor (VDR): qHTS; also: potency is read from the fitted curve at half-maximal effect
- conditions used: VDR-SRC2-3 peptide fluorescence polarization, 2 h
In all, about 400,000 compounds went through this assay and about 3,700 (0.93%) were called active. Another 3% or so got no clear call; they are omitted. What follows is part of a selection rich in actives, with near analogues and random picks from the rest.

Check out these entries, answers already filled in.
{"molecule": "C=CCN1C(=O)NC(=O)/C(=C/c2ccc(OCC(=O)Nc3ccc(C)cc3)cc2)C1=O", "assay target": "Vitamin D3 receptor (Homo sapiens) (UniProt P11473)", "Potency": "70.8 µM (active)"}
{"molecule": "N#Cc1c(Cl)c(Cl)c(Cl)c(C#N)c1Cl", "assay target": "Vitamin D3 receptor (Homo sapiens) (UniProt P11473)", "Potency": "0.794 µM (active)"}
{"molecule": "Cc1ccnc(-n2c(C)cc(/C=C3\\C(=O)NC(=S)N(C)C3=O)c2C)c1", "assay target": "Vitamin D3 receptor (Homo sapiens) (UniProt P11473)", "Potency": "39.8 µM (active)"}
{"molecule": "CC(=O)[O][Sn]([c]1ccccc1)([c]1ccccc1)[c]1ccccc1", "assay target": "Vitamin D3 receptor (Homo sapiens) (UniProt P11473)", "Potency": "2.24 µM (active)"}
{"molecule": "COc1cc(Cn2c(N)c(C(=O)NCc3ccco3)c3nc4ccccc4nc32)cc(OC)c1OC", "assay target": "Vitamin D3 receptor (Homo sapiens) (UniProt P11473)", "Potency": "79.4 µM (active)"}

[in] Please look up its Potency: "N#CC(C#N)=Cc1cc(O)c(O)c([N+](=O)[O-])c1"
[out] 44.7 µM (active)

[in] For the molecule shown here, "O=C1NC(=O)N(c2ccccc2)C(=O)/C1=C/c1ccc([N+](=O)[O-])s1" , give the reported Potency.
[out] 50.1 µM (active)

[in] Would you kindly share the measured Potency for Cc1cccc2c3c(ccc12)C1=C(C(=O)C3=O)C(C)CO1 (centres undefined) ?
[out] 5.62 µM (active)

[in] Which Potency is reported for this molecule? "CC(=O)c1c(O)c(C)c(O)c(Cc2c(O)c3c(c(C(=O)/C=C\c4ccccc4)c2O)OC(C)(C)C=C3)c1O"
[out] 35.5 µM (active)

[in] Which Potency value belongs to "COc1ccc(CN2C(=O)NC(=O)/C(=C\c3ccc(OC)c(OC)c3OC)C2=O)cc1" ?
[out] 70.8 µM (active)
